Test system: Botrtyis cinerea (Bc)
protocol_notes: Growth inhibition assay of fungal pathogens
Assay type: cell-based
run_conditions: 48 h, Table 4b, read-out: Concentration at 90% Inhibition Bc
experimental_endpoint: IC90 (µg/mL)
Value expressed in µg/mL; do not type the unit.

Please review the following examples before continuing.
smiles_representation=CCOC(=O)c1sc2c(c1C)c(=O)n(C(C)(C)C(=O)N1CCCC1)c(=O)n2C[C@H](O)c1cc(F)ccc1OC unit=µg/mL experimental_value=2
smiles_representation=CCOC(=O)c1sc2c(c1C)c(=O)n([C@H](C)C(=O)NC(C)C)c(=O)n2C[C@H](OCCC#N)c1cc(F)ccc1OC unit=µg/mL experimental_value=0.4
smiles_representation=CCOC(=O)c1sc2c(c1C)c(=O)n([C@H](C)C(=O)NC(C)C)c(=O)n2C[C@H](O)c1cc(F)ccc1OC unit=µg/mL experimental_value=2
smiles_representation=CCOC(=O)c1sc2c(c1C)c(=O)n(C(C)(C)C(=O)NC(C)C)c(=O)n2CCc1cc(F)ccc1OC unit=µg/mL experimental_value=2

Data request: Entry under review: CCOC(=O)c1sc2c(c1C)c(=O)n(C(C)(C)C(=O)NC(C)C)c(=O)n2C[C@H](OCC#N)c1cc(F)ccc1OC . Reported IC90?
Data returned: 0.4

Data request: Same read-out for CCOC(=O)c1sc2c(c1C)c(=O)n([C@@H](C)C(=O)N(C)C(C)C)c(=O)n2C[C@H](OCCC#N)c1cc(F)ccc1OC ?
Data returned: 2

Data request: Same read-out for CCNC(=O)C(C)(C)n1c(=O)c2c(C)c(C(=O)OCC)sc2n(C[C@H](O)c2cc(F)ccc2OC)c1=O ?
Data returned: 10

Data request: Same read-out for CCNC(=O)C(C)(C)n1c(=O)c2c(C)c(C(=O)OCC)sc2n(C[C@H](OC(C)C)c2ccccc2OC)c1=O ?
Data returned: 2

Data request: Same read-out for CCOC(=O)c1sc2c(c1C)c(=O)n(C(C)(C)C(=O)N1CCCCC1)c(=O)n2C[C@H](OC1CCOCC1)c1ccccc1OC ?
Data returned: 0.4

Data request: Same read-out for CCOC(=O)c1sc2c(c1C)c(=O)n([C@H](C)C(N)=O)c(=O)n2C[C@H](OCCC#N)c1cc(F)ccc1OC ?
Data returned: 10

Data request: Same read-out for CCOC(=O)c1sc2c(c1C)c(=O)n([C@@H](C)C(=O)N1CCCC1)c(=O)n2C[C@H](OCCC#N)c1cc(F)ccc1OC ?
Data returned: 10

Data request: Same read-out for CCOC(=O)c1sc2c(c1C)c(=O)n(C(C)(C)C(=O)N1CCCC1)c(=O)n2C[C@H](OCCC#N)c1cc(F)ccc1OC ?
Data returned: 2

###

Listed compounds paired with reported IC90
Test system: Botrtyis cinerea (Bc)
protocol_notes: Growth inhibition assay of fungal pathogens
Type: cell-based
run_conditions: 48 h, Table 4b, read-out: Concentration at 90% Inhibition Bc
Output should be the measured figure followed by the unit it is expressed in.

smiles_representation=CCOC(=O)c1sc2c(c1C)c(=O)n([C@H](C)C(=O)N(C)C(C)C)c(=O)n2C[C@H](OCCC#N)c1cc(F)ccc1OC experimental_value="2 µg/mL"
smiles_representation=CCOC(=O)c1sc2c(c1C)c(=O)n(C(C)(C)C(=O)NC(C)C)c(=O)n2C[C@H](OC(C)C)c1ccccc1OC experimental_value="0.4 µg/mL"
smiles_representation=CCOC(=O)c1sc2c(c1C)c(=O)n(C(C)(C)C(=O)N1CCCC1)c(=O)n2C[C@H](OC(C)C)c1ccccc1OC experimental_value="0.4 µg/mL"
smiles_representation=CCOC(=O)c1sc2c(c1C)c(=O)n(C(C)(C)C(=O)N1CCOCC1)c(=O)n2C[C@H](OC(C)C)c1ccccc1OC experimental_value="0.4 µg/mL"
smiles_representation=CCOC(=O)c1sc2c(c1C)c(=O)n(C(C)(C)C(=O)NC(C)C)c(=O)n2C[C@H](OCCOC)c1cc(F)ccc1OC experimental_value="2 µg/mL"

# next compound below
Data request: Entry under review: CCOC(=O)c1sc2c(c1C)c(=O)n(C(C)(C)C(=O)NC(C)C)c(=O)n2C[C@H](OCCO)c1cc(F)ccc1OC . Reported IC90?
Data returned: 2 µg/mL

###

Listed compounds paired with reported IC50
system_tested: fACC2 (UniProt Q00955)
Sequence (Q00955 whole entry): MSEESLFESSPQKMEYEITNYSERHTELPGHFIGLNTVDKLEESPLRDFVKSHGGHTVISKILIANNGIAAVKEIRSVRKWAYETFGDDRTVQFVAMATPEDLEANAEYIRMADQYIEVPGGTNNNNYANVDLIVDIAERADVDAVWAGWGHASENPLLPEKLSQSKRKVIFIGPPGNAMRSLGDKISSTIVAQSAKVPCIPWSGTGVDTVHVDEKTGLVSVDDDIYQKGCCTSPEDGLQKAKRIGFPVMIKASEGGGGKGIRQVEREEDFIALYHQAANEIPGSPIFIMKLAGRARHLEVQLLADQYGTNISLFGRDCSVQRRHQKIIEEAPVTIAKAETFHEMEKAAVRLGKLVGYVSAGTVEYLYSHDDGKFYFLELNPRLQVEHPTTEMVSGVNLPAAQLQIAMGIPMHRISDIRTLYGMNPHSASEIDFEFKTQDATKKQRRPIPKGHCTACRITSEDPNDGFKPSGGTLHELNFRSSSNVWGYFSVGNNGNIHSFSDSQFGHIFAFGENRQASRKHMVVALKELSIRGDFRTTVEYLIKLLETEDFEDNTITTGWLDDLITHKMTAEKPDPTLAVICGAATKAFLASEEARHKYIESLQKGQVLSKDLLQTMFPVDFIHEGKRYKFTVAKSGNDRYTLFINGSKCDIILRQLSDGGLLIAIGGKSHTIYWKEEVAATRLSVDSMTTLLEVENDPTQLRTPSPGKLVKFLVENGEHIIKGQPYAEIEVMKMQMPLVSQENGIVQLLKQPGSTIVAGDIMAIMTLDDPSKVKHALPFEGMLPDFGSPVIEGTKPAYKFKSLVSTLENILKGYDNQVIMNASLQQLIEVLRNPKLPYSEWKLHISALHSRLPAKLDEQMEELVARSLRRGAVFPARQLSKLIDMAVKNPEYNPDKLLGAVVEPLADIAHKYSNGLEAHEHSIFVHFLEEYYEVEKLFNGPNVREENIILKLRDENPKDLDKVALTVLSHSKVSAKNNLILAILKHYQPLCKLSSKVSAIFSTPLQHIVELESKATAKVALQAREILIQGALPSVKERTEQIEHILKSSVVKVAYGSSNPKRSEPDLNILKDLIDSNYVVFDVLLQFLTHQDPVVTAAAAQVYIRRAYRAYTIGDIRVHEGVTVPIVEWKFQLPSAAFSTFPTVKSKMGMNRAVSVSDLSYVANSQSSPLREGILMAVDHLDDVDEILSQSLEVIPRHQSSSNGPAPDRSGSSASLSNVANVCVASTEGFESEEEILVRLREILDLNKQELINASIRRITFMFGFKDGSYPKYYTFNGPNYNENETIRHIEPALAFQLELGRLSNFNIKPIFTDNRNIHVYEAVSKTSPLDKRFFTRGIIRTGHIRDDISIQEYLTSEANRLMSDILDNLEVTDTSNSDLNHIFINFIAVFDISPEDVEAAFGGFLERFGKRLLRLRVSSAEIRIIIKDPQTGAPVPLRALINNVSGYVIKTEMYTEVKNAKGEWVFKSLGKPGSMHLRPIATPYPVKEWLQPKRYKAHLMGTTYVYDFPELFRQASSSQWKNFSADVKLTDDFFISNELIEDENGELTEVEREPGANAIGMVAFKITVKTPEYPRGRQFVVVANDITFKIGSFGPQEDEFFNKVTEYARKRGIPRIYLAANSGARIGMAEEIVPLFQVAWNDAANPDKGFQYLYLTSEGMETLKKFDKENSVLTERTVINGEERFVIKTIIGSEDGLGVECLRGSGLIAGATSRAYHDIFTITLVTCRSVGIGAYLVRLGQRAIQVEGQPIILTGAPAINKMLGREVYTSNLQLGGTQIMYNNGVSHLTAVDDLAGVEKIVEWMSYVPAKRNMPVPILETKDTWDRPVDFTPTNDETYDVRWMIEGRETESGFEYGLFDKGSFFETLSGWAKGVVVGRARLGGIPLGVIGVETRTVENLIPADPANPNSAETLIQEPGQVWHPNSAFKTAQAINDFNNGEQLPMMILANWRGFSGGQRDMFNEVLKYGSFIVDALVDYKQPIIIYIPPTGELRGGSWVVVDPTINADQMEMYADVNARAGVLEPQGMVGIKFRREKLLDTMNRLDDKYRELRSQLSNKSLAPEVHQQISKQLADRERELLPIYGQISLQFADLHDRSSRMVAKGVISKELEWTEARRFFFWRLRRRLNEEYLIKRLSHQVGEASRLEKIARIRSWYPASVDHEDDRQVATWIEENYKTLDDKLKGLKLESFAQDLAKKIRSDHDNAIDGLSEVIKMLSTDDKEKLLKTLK
protocol_notes: In vitro ACC2 inhibition assay (ADP-Glo), fungal ACC2
Assay type: biochemical
run_conditions: Table 2b (additional results)

compound="CCOC(=O)c1sc2c(c1C)c(=O)n(C(C)(C)C(=O)NC(C)C)c(=O)n2C[C@H](OCCC#N)c1cc(F)ccc1OC [Compound I-15]" experimental_endpoint=IC50 experimental_value="0.3 to 3 nM"
compound="CCNC(=O)[C@H](C)n1c(=O)c2c(C)c(C(=O)OCC)sc2n(C[C@H](OCCC#N)c2cc(F)ccc2OC)c1=O [Compound I-42]" experimental_endpoint=IC50 experimental_value="0.3 to 3 nM"
compound="CCOC(=O)c1sc2c(c1C)c(=O)n(C(C)(C)C(=O)N1CCCCC1)c(=O)n2C[C@H](OC1CCOCC1)c1ccccc1OC [Compound I-2]" experimental_endpoint=IC50 experimental_value="0.3 to 3 nM"
compound="CCOC(=O)c1sc2c(c1C)c(=O)n(C(C)(C)C(=O)NC(C)C)c(=O)n2C[C@H](OCC(C)(C)C#N)c1cc(F)ccc1OC [Compound I-37]" experimental_endpoint=IC50 experimental_value="0.3 to 3 nM"

Data request: Entry under review: CCOC(=O)c1sc2c(c1C)c(=O)n([C@H](C)C(=O)N1CCCC1)c(=O)n2C[C@H](OCCC#N)c1cc(F)ccc1OC [Compound I-24] . Reported IC50?
Data returned: 0.3 to 3 nM

Data request: Same read-out for CCOC(=O)c1sc2c(c1C)c(=O)n(C(C)(C)C(=O)NC(C)C)c(=O)n2C[C@H](OCC(C)(C)C#N)c1ccccc1OC [Compound I-38] ?
Data returned: 0.3 to 3 nM

###

system_tested: hACC2 (Homo sapiens, UniProt O00763)
Sequence (O00763 whole entry): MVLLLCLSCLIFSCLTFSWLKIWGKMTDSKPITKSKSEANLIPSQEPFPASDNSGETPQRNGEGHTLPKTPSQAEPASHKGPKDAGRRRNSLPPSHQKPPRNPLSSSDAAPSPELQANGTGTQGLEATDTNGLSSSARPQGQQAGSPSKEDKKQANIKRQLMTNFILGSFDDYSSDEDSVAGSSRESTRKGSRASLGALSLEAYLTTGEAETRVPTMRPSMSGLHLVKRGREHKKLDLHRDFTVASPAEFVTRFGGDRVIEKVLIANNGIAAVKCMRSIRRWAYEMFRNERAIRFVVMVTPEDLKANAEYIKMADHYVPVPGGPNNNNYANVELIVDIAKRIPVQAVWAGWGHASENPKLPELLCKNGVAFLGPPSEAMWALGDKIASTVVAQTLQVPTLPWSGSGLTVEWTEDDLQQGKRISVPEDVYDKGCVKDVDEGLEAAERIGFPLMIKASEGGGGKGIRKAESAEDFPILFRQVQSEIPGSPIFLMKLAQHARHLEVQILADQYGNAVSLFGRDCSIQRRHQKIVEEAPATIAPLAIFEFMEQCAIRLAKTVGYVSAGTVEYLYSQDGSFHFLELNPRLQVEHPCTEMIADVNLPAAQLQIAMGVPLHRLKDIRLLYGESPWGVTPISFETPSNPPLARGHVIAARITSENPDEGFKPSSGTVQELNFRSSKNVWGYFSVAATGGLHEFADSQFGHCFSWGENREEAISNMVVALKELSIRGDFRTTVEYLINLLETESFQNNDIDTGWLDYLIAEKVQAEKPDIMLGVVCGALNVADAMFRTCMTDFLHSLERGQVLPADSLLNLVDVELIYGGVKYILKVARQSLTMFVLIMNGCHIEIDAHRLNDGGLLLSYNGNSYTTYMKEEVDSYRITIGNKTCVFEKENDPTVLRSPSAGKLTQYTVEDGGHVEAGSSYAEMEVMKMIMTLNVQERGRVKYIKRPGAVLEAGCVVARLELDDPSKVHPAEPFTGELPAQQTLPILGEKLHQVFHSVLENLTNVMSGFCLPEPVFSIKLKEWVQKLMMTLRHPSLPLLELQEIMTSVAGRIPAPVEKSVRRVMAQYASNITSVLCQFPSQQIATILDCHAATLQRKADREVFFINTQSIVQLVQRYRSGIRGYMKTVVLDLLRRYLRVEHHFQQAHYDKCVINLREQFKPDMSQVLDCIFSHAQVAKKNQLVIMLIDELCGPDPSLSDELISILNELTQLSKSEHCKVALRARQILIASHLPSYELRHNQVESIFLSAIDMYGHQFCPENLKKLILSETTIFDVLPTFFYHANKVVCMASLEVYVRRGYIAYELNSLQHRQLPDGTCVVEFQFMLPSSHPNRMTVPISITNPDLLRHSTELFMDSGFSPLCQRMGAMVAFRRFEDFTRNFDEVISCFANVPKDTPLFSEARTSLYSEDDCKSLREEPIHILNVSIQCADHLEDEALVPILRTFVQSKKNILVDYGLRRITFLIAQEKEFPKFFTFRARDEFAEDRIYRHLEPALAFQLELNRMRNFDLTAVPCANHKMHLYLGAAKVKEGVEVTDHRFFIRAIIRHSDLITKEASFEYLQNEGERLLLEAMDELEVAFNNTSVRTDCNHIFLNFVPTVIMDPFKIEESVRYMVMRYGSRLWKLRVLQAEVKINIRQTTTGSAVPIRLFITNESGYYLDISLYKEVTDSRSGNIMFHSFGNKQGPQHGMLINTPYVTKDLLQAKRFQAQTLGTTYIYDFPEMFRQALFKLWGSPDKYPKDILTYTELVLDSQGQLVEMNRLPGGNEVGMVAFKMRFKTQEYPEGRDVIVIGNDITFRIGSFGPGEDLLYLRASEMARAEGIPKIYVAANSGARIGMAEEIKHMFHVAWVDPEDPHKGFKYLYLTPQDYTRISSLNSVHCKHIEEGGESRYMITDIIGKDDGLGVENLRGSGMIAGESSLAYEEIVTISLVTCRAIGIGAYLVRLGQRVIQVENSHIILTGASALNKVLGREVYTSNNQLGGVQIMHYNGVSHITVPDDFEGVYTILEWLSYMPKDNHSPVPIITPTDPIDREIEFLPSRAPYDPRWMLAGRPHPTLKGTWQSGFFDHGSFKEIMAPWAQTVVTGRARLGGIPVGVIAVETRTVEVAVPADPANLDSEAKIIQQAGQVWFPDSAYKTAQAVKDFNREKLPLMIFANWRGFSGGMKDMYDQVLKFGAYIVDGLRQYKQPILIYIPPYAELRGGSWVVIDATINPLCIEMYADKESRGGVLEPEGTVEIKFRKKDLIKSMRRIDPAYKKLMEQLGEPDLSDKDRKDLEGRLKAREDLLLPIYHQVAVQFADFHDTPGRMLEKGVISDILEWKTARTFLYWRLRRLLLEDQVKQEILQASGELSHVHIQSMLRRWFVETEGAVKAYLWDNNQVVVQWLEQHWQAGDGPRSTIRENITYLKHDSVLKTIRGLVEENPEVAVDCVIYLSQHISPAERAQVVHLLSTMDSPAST
protocol_notes: In vitro ACC2 inhibition assay (ADP-Glo), human ACC2
Format: biochemical
run_conditions: Table 2b (additional results)
Text: An exemplary procedure for the in vitro ACC inhibition assay, which can be used to determine the inhibitory action of compounds of the invention toward either human (hACC2) or fungal (fACC2) ACC2, follows. […] The ADP-Glo™ Kinase Assay is a luminescent ADP detection assay to measure enzymatic activity by quantifying the amount of ADP produced during an enzyme reaction. […] Luminescence can be correlated to ADP concentrations by using an ATP-to-ADP conversion curve. […]
experimental_endpoint: IC50

Data request: Entry under review: CCNC(=O)C(C)(C)n1c(=O)c2c(C)c(C(=O)OCC)sc2n(C[C@H](OCCC#N)c2cc(F)ccc2OC)c1=O . Reported IC50?
Data returned: 0.003 to 0.01 µM

Data request: Same read-out for CCOC(=O)c1sc2c(c1C)c(=O)n(C(C)(C)C(=O)NC(C)C)c(=O)n2C[C@H](OC[C@@H](C)C#N)c1cc(F)ccc1OC ?
Data returned: 0.003 to 0.01 µM

Data request: Same read-out for CCOC(=O)c1sc2c(c1C)c(=O)n(C(C)(C)C(=O)NC(C)C)c(=O)n2CCc1cc(F)ccc1OCCC#N ?
Data returned: ≥ 0.04 µM

###

system_tested: fACC2 (UniProt Q00955)
protocol_notes: In vitro ACC2 inhibition assay (ADP-Glo), fungal ACC2
Format: biochemical
run_conditions: Table 2b (additional results)
pIC50: −log10 of the molar value.
experimental_endpoint: pIC50

Please review the following examples before continuing.
smiles_representation=CCOC(=O)c1sc2c(c1C)c(=O)n(C(C)(C)C(=O)NC(C)C)c(=O)n2C[C@H](OC(C)C)c1ccccc1OC system_tested="fACC2 (UniProt Q00955)" experimental_endpoint=pIC50 experimental_value="8.52 to 9.52"
smiles_representation=CCOC(=O)c1sc2c(c1C)c(=O)n(C(C)(C)C(=O)N1CCOCC1)c(=O)n2C[C@H](OC(C)C)c1ccccc1OC system_tested="fACC2 (UniProt Q00955)" experimental_endpoint=pIC50 experimental_value="8.00 to 8.52"

Data request: Entry under review: CCNC(=O)[C@@H](C)n1c(=O)c2c(C)c(C(=O)OCC)sc2n(C[C@H](OCCC#N)c2cc(F)ccc2OC)c1=O . Reported pIC50?
Data returned: 8.52 to 9.52

Data request: Same read-out for CCOC(=O)c1sc2c(c1C)c(=O)n([C@H](C)C(=O)N(C)C(C)C)c(=O)n2C[C@H](OCCC#N)c1cc(F)ccc1OC ?
Data returned: 8.52 to 9.52

###

system_tested: fACC2 (UniProt Q00955)
protocol_notes: In vitro ACC2 inhibition assay (ADP-Glo), fungal ACC2
Type: biochemical
run_conditions: Table 2b (additional results)
Listed molecules paired with reported IC50

molecule="CCOC(=O)c1sc2c(c1C)c(=O)n([C@@H](C)C(=O)NC(C)C)c(=O)n2C[C@H](O)c1cc(F)ccc1OC [Compound I-44]" experimental_value="10 to 40 nM"
molecule="CCOC(=O)c1sc2c(c1C)c(=O)n([C@H](C)C(=O)NC(C)C)c(=O)n2C[C@H](OCCC#N)c1cc(F)ccc1OC [Compound I-21]" experimental_value="0.3 to 3 nM"

Data request: Entry under review: CCOC(=O)c1sc2c(c1C)c(=O)n([C@@H](C)C(=O)NC(C)C)c(=O)n2C[C@H](OCCC#N)c1cc(F)ccc1OC [Compound I-20] . Reported IC50?
Data returned: 0.3 to 3 nM

Data request: Same read-out for CCOC(=O)c1sc2c(c1C)c(=O)n(C(C)(C)C(=O)N1CCCC1)c(=O)n2C[C@H](OCCO)c1cc(F)ccc1OC [Compound I-12] ?
Data returned: 0.3 to 3 nM

Taken from patent US11098055B2.
